Data credit: patent US20250289780A1

- Tested on: DU145 cells
- ASSAY COMMENT: MTT anti-proliferative assay, DU145
- Format: cell-based
- ASSAY CONTEXT: Homo sapiens, DU-145, read-out: IC50, cell growth
- Procedure: These compounds were examined for their capabilities of inducing apoptosis. […] The formation of pores on the outer mitochondrial membrane and the resulting change in mitochondrial membrane potential were determined by JC-1 staining. […] The anti-proliferative activity was also evaluated using MTT assay in prostate cancer cells.
MEASUREMENT KIND: IC50

Look up and state reported IC50 for CCC(C)COc1cc(-c2ccc(C(=O)Nc3ccc(C(=O)O)cc3OC(C)CC)c(OCCC(C)C)c2)ccc1C(=O)Nc1ccc(C(=O)O)cc1OCc1ccccc1 (stereo not shown) [Compound 1]
2.87 to 9.67 µM

----------
- SYSTEM UNDER TEST: Mcl-1 (Homo sapiens, UniProt Q07820)
- Sequence (Q07820 whole entry): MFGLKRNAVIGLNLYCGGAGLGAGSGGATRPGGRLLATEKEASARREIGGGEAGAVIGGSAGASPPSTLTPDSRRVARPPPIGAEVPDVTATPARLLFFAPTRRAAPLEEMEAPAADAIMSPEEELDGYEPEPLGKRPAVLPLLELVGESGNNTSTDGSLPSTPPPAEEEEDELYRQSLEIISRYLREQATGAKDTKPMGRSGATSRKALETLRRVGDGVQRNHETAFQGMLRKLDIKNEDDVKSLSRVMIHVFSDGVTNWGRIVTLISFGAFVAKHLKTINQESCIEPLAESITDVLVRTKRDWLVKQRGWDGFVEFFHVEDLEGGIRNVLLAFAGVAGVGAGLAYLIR
MEASUREMENT KIND: pIC50
Note: pIC50 values are expressed as the negative base-10 logarithm of concentration in M.

Would you please give the reported pIC50 of CCC(C)Oc1cc(C(=O)O)ccc1NC(=O)c1ccc(-c2ccc(C(=O)Nc3ccc(C(=O)O)cc3OC(C)CC)c(OC(C)C)c2)cc1OCCC(C)C (centres unmarked) with Mcl-1 (Homo sapiens, UniProt Q07820)?
6.80

----------
- Tested on: PC3 cells
- ASSAY COMMENT: MTT anti-proliferative assay, PC3
- Assay type: cell-based
- ASSAY CONTEXT: Homo sapiens, PC-3; PC3, MTT assay; read-out: IC50, cell growth
pIC50: −log10 of the molar value.
MEASUREMENT KIND: pIC50

Look up and state reported pIC50 for CCC(C)COc1cc(-c2ccc(C(=O)Nc3ccc(C(=O)O)cc3OC(C)CC)c(OCCC(C)C)c2)ccc1C(=O)Nc1ccc(C(=O)O)cc1OCc1ccccc1 (stereo not shown) [Compound 1]
5.01 to 5.54
